- TEST SUMMARY: folding stability dG unfold from chymotrypsin proteolysis; higher = more stable
OBSERVATION TYPE: folding stability dG unfold (kcal/mol)
// return numeric value only (unit: kcal/mol, not printed)

Consider the reported folding stability dG unfold for these sequences:
>  <MONOMER SEQUENCE>
SAGMMVKVEIEFPLTLTTTEKVGTGPNGIPVFETREEIVVITFRATVPENPEEVAAAKEEAKAVAEALSSAG [r14_223_JUSTAS]

>  <OBSERVED>
2.08

$$$$
>  <MONOMER SEQUENCE>
SAGGAKITVDDNKITIELPLPNGKPAGSINEPLPDGSSRILVKFPDFVLHLEITPEGIKIASIDNNKDSAGG [r13_619_TrMRF]

>  <OBSERVED>
1.77

$$$$
>  <MONOMER SEQUENCE>
SAGGSAGGSGFPVRLKIWDPDETYTYTVPMDPDNVQKFAEELGEKNFNIETEPNGWATITIPKSAGGSAGGS [r12_292_TrROS]

>  <OBSERVED>
0.95

$$$$
>  <MONOMER SEQUENCE>
SAGGTVTIFIPGMSLDQIKKFIKFFRDNPDRPVTIHMPNGYMIEIDPKGKIDNIKVRRMPPMPEDDQSAGGS [r16_248_TrROS]

>  <OBSERVED>
2.93

$$$$

Form field folding stability dG unfold, entry SAGGMRLRIVVKSEEEARELAEALAKKLKEEFPGLKIEVKVVKVEYNEETDLIVVEVEIKVELEDEEPSAGG [r13_585_TrROS_Hall] : 4.42

folding stability dG unfold for SAGGGSYTIVVELGDKKVVFEIDKEEAVEEAVAKLPELGLEVEVLKKEKVLNEDGKPSVLVEVKVKPSAGGS [r8_336_TrMRF] is 1.12

Memo: SAGGSAGGSMPPVVLEVKDPESGKVTTLFFFPPTGEALVVPPDGSVFYEPFTSLDELVERLAGSAGGSAGGS [r12_511_TrMRF] , reported folding stability dG unfold: 1.71

get_value(item= SAGGSSAEELAEALKKKLEELGLEIKELELKVKKVKVEEKPKPKVELKEEKVEVKEKKFYSEEEKKSAGGSA [r2_384_TrROS_Hall] , readout=folding stability dG unfold) returns -0.485

Data point: SAGGMMKYVVRIKIYNENGEEVKEIEIEIEMSEEEVEELARKLAEKLAEELGVEVKIVEVEIEKLEPSAGGS [r16_140_TrROS_Hall] ; folding stability dG unfold = 4.28

The sequence SAGMTPEDLKNGKPVKVPIPIPIRDPDGKPWAEIPIKGPMPVKDIMEVIETIREIARELKIPPSDGDKNSAG [r5_606_TrROS] showed folding stability dG unfold equal to -0.743

----------
Measured folding stability dG unfold, listed per entry.
- TEST SUMMARY: folding stability dG unfold (combined trypsin and chymotrypsin); higher = more stable
Give the quantity in kcal/mol, number only.

Reference set (3 entries):
>  <MONOMER SEQUENCE>
SAGGSAGGKPKPVLRTFEVRDPATGELYKVELVVLDDGSVRALVTRRDGRKREFTFDAPASLILSAGGSAGG [r6_588_TrMRF]

>  <UOM>
kcal/mol

>  <OBSERVED>
1.88

$$$$
>  <MONOMER SEQUENCE>
SASPPRRFMIKVTYPDGKTTLSYGDDPEQTRAALEAQIAEEHPGNYTIEYTELSPDEWASPEKAEALLSSAG [r14_900_JUSTAS]

>  <UOM>
kcal/mol

>  <OBSERVED>
2.01

$$$$
>  <MONOMER SEQUENCE>
SAGGSAGGSAGGSAMTLLSEEELPDGSRRVLMRFPDGTRMELTVHPDGSVEERVTPPAASAGGSAGGSAGGS [r4_483_JUSTAS]

>  <UOM>
kcal/mol

>  <OBSERVED>
2.72

$$$$

Below: the item to evaluate.
Value of measured folding stability dG unfold for the entry SAGGSAGGSPYLVTVTLPDGSTLTHTIPVPPDVPLSEEEIRERIRREYPGPPLGPITIERPTESAGGSAGGS [r12_262_JUSTAS] : 1.35
